Value source: patent US10738030B2

Assign Emax to each entry below.
assayed target: F508del (Homo sapiens, UniProt P13569, DEL508-508)
Construct: expressed in transfected cells
Sequence (P13569 with tags, fused parts or gaps DEL508-508): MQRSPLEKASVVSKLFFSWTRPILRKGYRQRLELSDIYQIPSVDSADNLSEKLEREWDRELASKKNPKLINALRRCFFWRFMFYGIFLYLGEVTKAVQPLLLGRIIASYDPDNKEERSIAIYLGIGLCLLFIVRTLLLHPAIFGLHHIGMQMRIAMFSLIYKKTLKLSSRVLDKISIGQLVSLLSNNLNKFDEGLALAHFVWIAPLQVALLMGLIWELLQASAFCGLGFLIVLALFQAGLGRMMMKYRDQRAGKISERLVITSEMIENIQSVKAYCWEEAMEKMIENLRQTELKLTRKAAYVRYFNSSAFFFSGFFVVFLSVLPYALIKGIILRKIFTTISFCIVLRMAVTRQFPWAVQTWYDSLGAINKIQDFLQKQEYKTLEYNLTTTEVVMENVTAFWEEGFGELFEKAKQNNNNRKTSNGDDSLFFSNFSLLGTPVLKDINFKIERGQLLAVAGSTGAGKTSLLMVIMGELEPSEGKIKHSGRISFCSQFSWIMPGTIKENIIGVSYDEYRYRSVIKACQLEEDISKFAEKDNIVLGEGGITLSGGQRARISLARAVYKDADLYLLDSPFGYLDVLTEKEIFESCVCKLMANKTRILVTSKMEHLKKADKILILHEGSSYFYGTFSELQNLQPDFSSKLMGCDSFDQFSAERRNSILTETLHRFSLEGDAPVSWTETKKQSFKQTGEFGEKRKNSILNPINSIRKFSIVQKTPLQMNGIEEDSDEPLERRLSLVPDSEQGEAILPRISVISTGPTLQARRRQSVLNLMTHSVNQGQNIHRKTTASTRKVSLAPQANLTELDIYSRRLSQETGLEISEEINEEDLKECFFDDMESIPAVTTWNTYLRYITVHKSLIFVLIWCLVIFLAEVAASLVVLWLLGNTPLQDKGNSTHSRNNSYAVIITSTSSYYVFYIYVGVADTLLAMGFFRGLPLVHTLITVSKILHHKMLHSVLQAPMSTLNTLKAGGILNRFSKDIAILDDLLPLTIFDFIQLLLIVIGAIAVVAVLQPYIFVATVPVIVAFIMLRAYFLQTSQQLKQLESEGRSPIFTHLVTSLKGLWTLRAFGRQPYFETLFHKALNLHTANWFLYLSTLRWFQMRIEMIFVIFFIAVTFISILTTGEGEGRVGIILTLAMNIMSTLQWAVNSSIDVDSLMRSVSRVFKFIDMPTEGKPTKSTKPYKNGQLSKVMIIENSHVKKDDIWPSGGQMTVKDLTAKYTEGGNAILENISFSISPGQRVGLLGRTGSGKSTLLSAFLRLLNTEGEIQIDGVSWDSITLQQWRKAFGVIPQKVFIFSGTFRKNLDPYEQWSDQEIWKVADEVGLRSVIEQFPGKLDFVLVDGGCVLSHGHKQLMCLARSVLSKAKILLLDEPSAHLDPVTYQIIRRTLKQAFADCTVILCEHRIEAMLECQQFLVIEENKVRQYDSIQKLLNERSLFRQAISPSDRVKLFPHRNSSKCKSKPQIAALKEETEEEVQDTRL
experimental details: Membrane potential optical assay (FRET voltage-sensor dyes), identification of correction compounds
Type: cell-based
cond: maximum efficacy; NIH3T3 cells stably expressing F508del; procedures described above; read-out: Max Efficacy

Would you mind telling me what Emax value was observed for CC(C)COc1cc(F)cc(-c2ccc(C(=O)NS(=O)(=O)c3cccc(N)n3)c(N(C)C(C)C)n2)c1 ? > 80%

Would you mind telling me what Emax value was observed for CC(C)COc1cc(F)cc(-c2ccc(C(=O)NS(=O)(=O)c3cccc(N)n3)c(OCC(C)(F)F)n2)c1 ? 30 to 80%

Would you mind telling me what Emax value was observed for CCN(c1nc(-c2cc(F)cc(OCC(C)C)c2)ccc1C(=O)NS(=O)(=O)c1cccc(N)n1)C(C)C ? > 80%

Would you mind telling me what Emax value was observed for CC(C)COc1cc(F)cc(-c2ccc(C(=O)NS(=O)(=O)c3cccc(N)n3)c(OC/C=C/C(F)(F)F)n2)c1 ? 30 to 80%

Would you mind telling me what Emax value was observed for CCCCCOc1nc(-c2cc(F)cc(OCC(C)C)c2)ccc1C(=O)NS(=O)(=O)c1cccc(N)n1 ? > 80%

Would you mind telling me what Emax value was observed for CCC(Oc1nc(-c2cc(F)cc(OCC(C)C)c2)ccc1C(=O)NS(=O)(=O)c1cccc(N)n1)C(C)C (stereo not shown) ? 30 to 80%

Would you mind telling me what Emax value was observed for CC[C@H](C)Oc1nc(-c2cc(F)cc(OCC(C)C)c2)ccc1C(=O)NS(=O)(=O)c1cccc(N)n1 ? 30 to 80%
